conditions: in DMF, 303.2 K
parameter: solubility (mole fraction)
Give the value as a plain number.

stdin: Consider the molecule shown here: C[C@@H]1CC[C@@]2(OC1)O[C@H]1C[C@H]3[C@@H]4CC=C5C[C@@H](O)CC[C@]5(C)[C@H]4CC[C@]3(C)[C@H]1[C@@H]2C What is its recorded solubility (mole fraction)?
stdout: 0.00232

stdin: Field entry: C[C@]12CC[C@@H]3c4ccc(O)cc4CC[C@H]3[C@@H]1C[C@@H](O)[C@@H]2O
stdout: 0.00258

---

conditions: in sec-butanol, 308.2 K
Consider the following compounds; for each one, report its solubility (mole fraction).
// print number alone

stdin: What solubility (mole fraction) value was documented for this compound, C[C@@H]1CC[C@@]2(OC1)O[C@H]1C[C@H]3[C@@H]4CC=C5C[C@@H](O)CC[C@]5(C)[C@H]4CC[C@]3(C)[C@H]1[C@@H]2C ?
stdout: 0.000784

stdin: Field entry: C[C@]12CC[C@@H]3c4ccc(O)cc4CC[C@H]3[C@@H]1C[C@@H](O)[C@@H]2O
stdout: 0.00403

---

settings: in n-nonanol, 298.2 K
parameter: solubility (mole fraction)

stdin: Fill in the blank: the reported solubility (mole fraction) of C[C@]12CC[C@@H]3c4ccc(O)cc4CC[C@H]3[C@@H]1C[C@@H](O)[C@@H]2O is ____.
stdout: 0.00863

stdin: Proceed to C[C@@H]1CC[C@@]2(OC1)O[C@H]1C[C@H]3[C@@H]4CC=C5C[C@@H](O)CC[C@]5(C)[C@H]4CC[C@]3(C)[C@H]1[C@@H]2C
stdout: 0.00825

---

conditions: in water, 303.2 K
parameter: solubility (mole fraction)
# respond with the number and nothing more

stdin: Item under review: C[C@]12CC[C@@H]3c4ccc(O)cc4CC[C@H]3[C@@H]1C[C@@H](O)[C@@H]2O . Reported solubility (mole fraction)?
stdout: 0.000168

---

Kindly state solubility (mole fraction) for each of the entries shown.
conditions: in sec-butanol, 313.2 K

stdin: Item C[C@]12CC[C@@H]3c4ccc(O)cc4CC[C@H]3[C@@H]1C[C@@H](O)[C@@H]2O has what recorded solubility (mole fraction)?
stdout: 0.00453

stdin: What about C[C@@H]1CC[C@@]2(OC1)O[C@H]1C[C@H]3[C@@H]4CC=C5C[C@@H](O)CC[C@]5(C)[C@H]4CC[C@]3(C)[C@H]1[C@@H]2C ?
stdout: 0.00119

---

Consider the following compounds; for each one, report its solubility (mole fraction).
details: in 2-aminoethanol, 293.2 K
Could you keep your reply to the number by itself?

stdin: What does the record list as solubility (mole fraction) for C[C@]12CC[C@@H]3c4ccc(O)cc4CC[C@H]3[C@@H]1C[C@@H](O)[C@@H]2O ?
stdout: 0.0111

stdin: Quick one: C[C@@H]1CC[C@@]2(OC1)O[C@H]1C[C@H]3[C@@H]4CC=C5C[C@@H](O)CC[C@]5(C)[C@H]4CC[C@]3(C)[C@H]1[C@@H]2C
stdout: 0.00142

---

settings: in acetonitrile, 293.2 K
parameter: solubility (mole fraction)
Note: the reply should be a number with no unit written.

stdin: Suppose we examine the molecule C[C@@H]1CC[C@@]2(OC1)O[C@H]1C[C@H]3[C@@H]4CC=C5C[C@@H](O)CC[C@]5(C)[C@H]4CC[C@]3(C)[C@H]1[C@@H]2C ; what solubility (mole fraction) value has been reported?
stdout: 0.00359

---

details: in acetonitrile, 308.2 K
parameter: solubility (mole fraction)
Please respond with just the number, no unit label.

stdin: Entry C[C@@H]1CC[C@@]2(OC1)O[C@H]1C[C@H]3[C@@H]4CC=C5C[C@@H](O)CC[C@]5(C)[C@H]4CC[C@]3(C)[C@H]1[C@@H]2C : reported solubility (mole fraction) = ?
stdout: 0.00894

---

conditions: in sec-butanol, 328.2 K
parameter: solubility (mole fraction)
Give your answer as a number; write no unit.

stdin: Return reported solubility (mole fraction); argument: C[C@]12CC[C@@H]3c4ccc(O)cc4CC[C@H]3[C@@H]1C[C@@H](O)[C@@H]2O
stdout: 0.00812

stdin: Also C[C@@H]1CC[C@@]2(OC1)O[C@H]1C[C@H]3[C@@H]4CC=C5C[C@@H](O)CC[C@]5(C)[C@H]4CC[C@]3(C)[C@H]1[C@@H]2C , if possible.
stdout: 0.00366

---

conditions: in 2-aminoethanol, 318.2 K
Please respond with reported solubility (mole fraction) for every item in the list.
Provide a numeric answer; units are not to be included.

stdin: Quick one: solubility (mole fraction) for C[C@]12CC[C@@H]3c4ccc(O)cc4CC[C@H]3[C@@H]1C[C@@H](O)[C@@H]2O ?
stdout: 0.0254

stdin: Thanks! And C[C@@H]1CC[C@@]2(OC1)O[C@H]1C[C@H]3[C@@H]4CC=C5C[C@@H](O)CC[C@]5(C)[C@H]4CC[C@]3(C)[C@H]1[C@@H]2C ?
stdout: 0.00914

---

Assign solubility (mole fraction) to each entry below.
conditions: in morpholine-4-carbaldehyde, 318.2 K
Keep the answer to the number alone.

stdin: Consider the molecule shown here: C[C@]12CC[C@@H]3c4ccc(O)cc4CC[C@H]3[C@@H]1C[C@@H](O)[C@@H]2O What is its recorded solubility (mole fraction)?
stdout: 0.00495

stdin: Same read-out for C[C@@H]1CC[C@@]2(OC1)O[C@H]1C[C@H]3[C@@H]4CC=C5C[C@@H](O)CC[C@]5(C)[C@H]4CC[C@]3(C)[C@H]1[C@@H]2C ?
stdout: 0.0162

---

settings: in NMP, 303.2 K
parameter: solubility (mole fraction)

stdin: Fill in the blank: the reported solubility (mole fraction) of C[C@]12CC[C@@H]3c4ccc(O)cc4CC[C@H]3[C@@H]1C[C@@H](O)[C@@H]2O is ____.
stdout: 0.00105

stdin: Same again, this time with C[C@@H]1CC[C@@]2(OC1)O[C@H]1C[C@H]3[C@@H]4CC=C5C[C@@H](O)CC[C@]5(C)[C@H]4CC[C@]3(C)[C@H]1[C@@H]2C
stdout: 0.0138

---

conditions: in n-octane, 308.2 K
parameter: solubility (mole fraction)
I only need the number, thanks.

stdin: Find the recorded solubility (mole fraction) belonging to C[C@]12CC[C@@H]3c4ccc(O)cc4CC[C@H]3[C@@H]1C[C@@H](O)[C@@H]2O and report it.
stdout: 0.00103

stdin: Note, next up: C[C@@H]1CC[C@@]2(OC1)O[C@H]1C[C@H]3[C@@H]4CC=C5C[C@@H](O)CC[C@]5(C)[C@H]4CC[C@]3(C)[C@H]1[C@@H]2C
stdout: 0.00021

---

settings: in n-octane, 323.2 K
parameter: solubility (mole fraction)
# output: bare number, no unit

stdin: Requested read-out: solubility (mole fraction). Entry: C[C@]12CC[C@@H]3c4ccc(O)cc4CC[C@H]3[C@@H]1C[C@@H](O)[C@@H]2O
stdout: 0.00152

stdin: What do we get for C[C@@H]1CC[C@@]2(OC1)O[C@H]1C[C@H]3[C@@H]4CC=C5C[C@@H](O)CC[C@]5(C)[C@H]4CC[C@]3(C)[C@H]1[C@@H]2C ?
stdout: 0.00068

---

conditions: in sec-butanol, 298.2 K
parameter: solubility (mole fraction)
Enter a number only.

stdin: Would you kindly share the measured solubility (mole fraction) for C[C@@H]1CC[C@@]2(OC1)O[C@H]1C[C@H]3[C@@H]4CC=C5C[C@@H](O)CC[C@]5(C)[C@H]4CC[C@]3(C)[C@H]1[C@@H]2C ?
stdout: 0.000229

stdin: Next: C[C@]12CC[C@@H]3c4ccc(O)cc4CC[C@H]3[C@@H]1C[C@@H](O)[C@@H]2O
stdout: 0.0025

---

settings: in n-dodecane, 318.2 K
I'd appreciate it if you could supply solubility (mole fraction) values for the items below.
Kindly provide the number alone.

stdin: Please give the measured solubility (mole fraction) for this compound: C[C@]12CC[C@@H]3c4ccc(O)cc4CC[C@H]3[C@@H]1C[C@@H](O)[C@@H]2O
stdout: 0.00179

stdin: Subsequent entry: C[C@@H]1CC[C@@]2(OC1)O[C@H]1C[C@H]3[C@@H]4CC=C5C[C@@H](O)CC[C@]5(C)[C@H]4CC[C@]3(C)[C@H]1[C@@H]2C
stdout: 0.000743

---

conditions: in n-pentanol, 303.2 K
parameter: solubility (mole fraction)
Quick one: just the number, no unit, thanks!

stdin: Which solubility (mole fraction) is listed for C[C@]12CC[C@@H]3c4ccc(O)cc4CC[C@H]3[C@@H]1C[C@@H](O)[C@@H]2O ?
stdout: 0.00367

---

conditions: in n-octanol, 303.2 K
parameter: solubility (mole fraction)

stdin: Give its solubility (mole fraction) value. Item: C[C@]12CC[C@@H]3c4ccc(O)cc4CC[C@H]3[C@@H]1C[C@@H](O)[C@@H]2O
stdout: 0.00747

stdin: Can you check C[C@@H]1CC[C@@]2(OC1)O[C@H]1C[C@H]3[C@@H]4CC=C5C[C@@H](O)CC[C@]5(C)[C@H]4CC[C@]3(C)[C@H]1[C@@H]2C next?
stdout: 0.00516
